Tested on: MCF7
method description: Antiproliferative activity against human MCF7 cells after 48 hrs by [3H]-thymidine incorporation assay
Assay type: functional, cell-based
readout type: pIC50
To interpret pIC50, take it as minus log10 of a concentration measured in moles per litre.

Task: GET /values?readout=pIC50&item= `CCCCc1ccc(-c2sc3cc(O)ccc3c2C(=O)c2ccc(OCCN3CCCCC3)cc2)cc1`
Result: 7.48

* * *

measurement target: Estrogen receptor (Homo sapiens, UniProt P03372)
Sequence (P03372 whole entry): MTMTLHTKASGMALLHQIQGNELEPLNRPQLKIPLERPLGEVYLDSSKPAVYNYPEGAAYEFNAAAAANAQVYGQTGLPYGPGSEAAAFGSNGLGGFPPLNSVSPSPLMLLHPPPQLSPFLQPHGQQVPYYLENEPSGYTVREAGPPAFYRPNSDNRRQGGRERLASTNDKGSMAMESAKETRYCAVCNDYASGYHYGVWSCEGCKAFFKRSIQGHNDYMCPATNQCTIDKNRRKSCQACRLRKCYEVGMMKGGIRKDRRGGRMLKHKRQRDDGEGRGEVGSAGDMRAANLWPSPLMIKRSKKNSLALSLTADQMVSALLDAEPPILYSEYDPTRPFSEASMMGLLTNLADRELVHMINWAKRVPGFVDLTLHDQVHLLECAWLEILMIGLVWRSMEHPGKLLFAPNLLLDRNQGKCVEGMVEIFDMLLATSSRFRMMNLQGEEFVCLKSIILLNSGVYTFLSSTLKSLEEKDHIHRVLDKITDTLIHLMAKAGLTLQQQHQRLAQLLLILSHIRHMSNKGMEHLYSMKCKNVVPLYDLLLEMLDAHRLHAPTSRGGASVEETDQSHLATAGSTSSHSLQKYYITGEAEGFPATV
method description: Binding affinity to ERalpha ligand binding domain
readout type: Ki (nM)
Write the number in nM without appending the unit.

Task: What value of measured Ki is listed for `CCCCc1ccc(-c2sc3cc(O)ccc3c2C(=O)c2ccc(OCCN3CCCCC3)cc2)cc1` ?
Result: 0.25

* * *

measurement target: Estrogen receptor (Homo sapiens)
method description: Displacement of [3H]estradiol from ERalpha after 4 hrs by scintillation counting
readout type: Ki (nM)
# output: bare number, implied unit nM

Task: What Ki value was documented for this compound, `CCCCc1ccc(-c2sc3cc(O)ccc3c2C(=O)c2ccc(OCCN3CCCCC3)cc2)cc1` ?
Result: 0.25
